ASSAY_NOTES: Oral bioavailability in Sprague-Dawley rat at 1 mg/kg by LC/MS/MS analysis
Format: ADME, organism-based
DETAILS: in vivo
REPORTED_PROPERTY: bioavailability

query: // returns reported bioavailability for input C[C@H]1SC(N)=N[C@](C)(c2cc(NC(=O)c3cnc(OCF)cn3)ccc2F)[C@H]1F
result: 31%

* * *

ASSAY_NOTES: Oral bioavailability in mouse at 2.5 mg/kg
Assay type: ADME, organism-based
DETAILS: in vivo
REPORTED_PROPERTY: bioavailability (%)
Form entry: value (%) — number only.

query: // returns reported bioavailability for input C[C@H]1SC(N)=N[C@](C)(c2cc(NC(=O)c3cnc(OCF)cn3)ccc2F)[C@H]1F
result: 58

* * *

ASSAY_NOTES: Clearance in mouse at 0.5 mg/kg, iv
Assay type: ADME, organism-based
DETAILS: in vivo
REPORTED_PROPERTY: clearance (L/h/kg)
Form entry: value (L/h/kg) — number only.

query: // returns reported clearance for input C[C@H]1SC(N)=N[C@](C)(c2cc(NC(=O)c3cnc(OCF)cn3)ccc2F)[C@H]1F
result: 2.46

* * *

ASSAY_NOTES: Half life in Cynomolgus monkey at 0.5 mg/kg, iv by LC/MS/MS analysis
Assay type: ADME, organism-based, Macaca fascicularis
DETAILS: in vivo
REPORTED_PROPERTY: half-life (h)
Form entry: value (h) — number only.

query: // returns reported half-life for input C[C@H]1SC(N)=N[C@](C)(c2cc(NC(=O)c3cnc(OCF)cn3)ccc2F)[C@H]1F
result: 4.9

* * *

ASSAY_NOTES: Fraction unbound in dog plasma after 24 hrs by equilibrium dialysis based LC-MS/MS analysis
Type: ADME, cell-free, Canis lupus familiaris
REPORTED_PROPERTY: fraction unbound at 24 h
Please reply with the number alone, leaving off any unit.

query: // returns reported fraction unbound at 24 h for input C[C@H]1SC(N)=N[C@](C)(c2cc(NC(=O)c3cnc(OCF)cn3)ccc2F)[C@H]1F
result: 0.078

* * *

ASSAY_NOTES: AUC (0 to 24 hrs) in Sprague-Dawley rat at 250 mg/kg/day administered as suspension for 2 weeks
Format: ADME, organism-based
Design: dose 250 mg/kg/day, time < 24 hr
DETAILS: in vivo
REPORTED_PROPERTY: AUC at 24 h (ng·h/mL)
Form entry: value (ng·h/mL) — number only.

query: // returns reported AUC at 24 h for input C[C@H]1SC(N)=N[C@](C)(c2cc(NC(=O)c3cnc(OCF)cn3)ccc2F)[C@H]1F
result: 68000

* * *

Tested on: Canis familiaris
ASSAY_NOTES: In vivo inhibition of BACE1 in po dosed Beagle dog assessed as plasma level causing 50% reduction in amyloidbeta42 level in CSF administered as single dose measured after 4 to 49 hrs
Assay type: functional, organism-based
DETAILS: Canis lupus familiaris
Reported pEC50 values follow for various molecules
pEC50 field: float, defined as -log10 of concentration (mol/L).

Check out these entries, answers already filled in.
CN1C(N)=N[C@](C)(c2cc(NC(=O)c3ccc(F)cn3)ccc2F)CS1(=O)=O [VERUBECESTAT] ... 7.47
C[C@H]1OC[C@]2(c3cc(NC(=O)c4cnc(C(F)F)cn4)ccc3F)N=C(N)SC[C@H]12 [ELENBECESTAT] ... 7.66

In the following, a different molecule is considered.
query: // returns reported pEC50 for input C[C@H]1SC(N)=N[C@](C)(c2cc(NC(=O)c3cnc(OCF)cn3)ccc2F)[C@H]1F
result: 7.68
